Target: human GcgR (Homo sapiens, UniProt P47871)
Sequence (P47871 26-477): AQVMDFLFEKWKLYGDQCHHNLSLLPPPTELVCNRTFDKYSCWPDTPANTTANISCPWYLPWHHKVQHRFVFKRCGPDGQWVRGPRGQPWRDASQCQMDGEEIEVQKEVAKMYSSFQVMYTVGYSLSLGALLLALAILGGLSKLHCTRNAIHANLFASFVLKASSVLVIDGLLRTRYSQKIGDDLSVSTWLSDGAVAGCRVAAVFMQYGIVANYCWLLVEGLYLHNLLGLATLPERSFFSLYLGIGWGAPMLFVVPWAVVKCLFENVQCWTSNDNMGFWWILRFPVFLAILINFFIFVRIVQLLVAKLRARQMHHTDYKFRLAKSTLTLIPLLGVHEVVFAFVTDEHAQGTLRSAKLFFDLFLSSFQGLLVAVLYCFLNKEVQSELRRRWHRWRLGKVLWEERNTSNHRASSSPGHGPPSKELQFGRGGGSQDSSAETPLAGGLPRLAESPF
Assay: Functional cAMP activity in the presence of 1% HSA
Format: cell-based
Conditions: read-out: cAMP Rel EC50, hGcgR
Starred links: 1 amine or outer side, 2 acyl side, 3 side chain; linkers in the order of their positions; H or OH if unused. Non-standard residues stand in square brackets, D forms with d. Groups on a side chain read outwards from the residue. *: point of attachment. C20 diacid = O=C(O)CCCCCCCCCCCCCCCCCCC(=O)*; C18 diacid = O=C(O)CCCCCCCCCCCCCCCCC(=O)*; αMePhe(2-F) = C[C@](N)(Cc1ccccc1F)C(=O)O; γGlu = O=C(O)[C@H](CCC(=O)[*:2])N[*:1]; αMe4Pal = C[C@](N)(Cc1ccncc1)C(=O)O; αMeY = C[C@](N)(Cc1ccc(O)cc1)C(=O)O; 4Pal = N[C@@H](Cc1ccncc1)C(=O)O; αMeL = CC(C)C[C@](C)(N)C(=O)O; αMeS = C[C@](N)(CO)C(=O)O; Orn = NCCC[C@H](N)C(=O)O; AEEA = NCCOCCOCC(=O)O; Aib = CC(C)(N)C(=O)O
Property: EC50 (nM)
One number for each entry, in nM.

// fetch human GcgR (Homo sapiens, UniProt P47871) EC50 for H-H[Aib]QGT[αMePhe(2-F)]TSDYSILLDKK([AEEA-γGlu-C20 diacid])AA[Aib]AFIEYLIETGPSSGEPPPSEG-NH2 [Example 290]
878

// fetch human GcgR (Homo sapiens, UniProt P47871) EC50 for H-Y[Aib]QGT[αMePhe(2-F)]TSD[4Pal][αMeS]I[αMeL]LD[Orn]K([γGlu-γGlu-C18 diacid])AQ[αMe4Pal]EFI[dE][αMeY]LIEGGPSSGAPPPSGGGEE-NH2 [Example 1218]
185

// fetch human GcgR (Homo sapiens, UniProt P47871) EC50 for H-Y[Aib]QGT[αMePhe(2-F)]TSD[4Pal][αMeS]I[αMeL]LD[Orn]K([γGlu-γGlu-C18 diacid])AQ[αMe4Pal]EFI[dE][αMeY]LIEGGPPS[Aib][Orn]PPP[Orn]GE-NH2 [Example 1227]
199

// fetch human GcgR (Homo sapiens, UniProt P47871) EC50 for H-Y[Aib]QGTFTSDFS[Orn][αMeL]LDKK([AEEA-γGlu-C18 diacid])AQ[Aib]AFIEYLLE[Aib]GPSSG[Aib]PPPSGS-NH2 [Example 239]
693

// fetch human GcgR (Homo sapiens, UniProt P47871) EC50 for H-Y[Aib]QGTFTSD[4Pal]S[Orn][αMeL]LDKK([γGlu-γGlu-C18 diacid])AQ[αMe4Pal]AFIEYLIAGGPSSGAPPPSGSE-NH2 [Example 1009]
268

// fetch human GcgR (Homo sapiens, UniProt P47871) EC50 for H-Y[Aib]QGTFTSDFS[Orn][αMeL]LDKK([AEEA-γGlu-C18 diacid])AQ[Aib]AFIEWLLEGGPSSGAPPPEGE-NH2 [Example 120]
1540

For every record below, what is its EC50?
1. H-Y[Aib]QGT[αMePhe(2-F)]TSD[4Pal][αMeS]I[αMeL]LD[Orn]K([γGlu-γGlu-C18 diacid])AQ[αMe4Pal]EFI[dE][αMeY]LIEGGPSSGAPPPEGGGE-NH2 [Example 761]
2. H-Y[Aib]QGTFTSDFSK[αMeL]LDKK([AEEA-γGlu-C18 diacid])AQ[Aib]AFIEYLLE[Aib]GPSSGEPPPSEG-NH2 [Example 46]
3. H-Y[Aib]QGTFTSDFSK[αMeL]LDKK([AEEA-γGlu-C20 diacid])AQ[Aib]AFIEYLLAGGPSSGEPPPSGG-NH2 [Example 6]
4. H-Y[Aib]QGTFTSDFS[Orn][αMeL]LDKK([AEEA-AEEA-γGlu-C18 diacid])AQ[Aib]AFIEYLLE[dA]GPSSGHPPPSG[4Pal]-NH2 [Example 256]
5. H-Y[Aib]QGTFTSDFS[Orn][αMeL]LDKK([AEEA-γGlu-C18 diacid])AQ[Aib]AFIEWLLEGGHSSGAPPPEGS-NH2 [Example 126]

[162, 393, 1380, 625, 1120]
